The reported numbers originate from paper PMC11149917.

experimentSummary: Mouse blood and tissue PK (LC/MS-MS)
Format: in vivo
conditionDetails: mouse, tumor, oral, 25 mg/kg, KP-4, study KP-4 #4, 25 mg/kg, 24h; read-out: RMC-6236 (nM) Tumor
readout: concentration at 24 h

### Prompt For CCn1c(-c2cc(N3CCN(C)CC3)cnc2[C@H](C)OC)c2c3cc(ccc31)-c1csc(n1)C[C@H](NC(=O)[C@H]1C[C@@H]1C)C(=O)N1CCC[C@H](N1)C(=O)OCC(C)(C)C2 , what is its reported concentration at 24 h?
### Response 840 nM

---

experimentSummary: Mouse blood and tissue PK (LC/MS-MS)
Format: in vivo
conditionDetails: mouse, tumor, po, 3 mg/kg, NCI-H441 (3 mg/kg), single dose; read-out: Tumor t1/2 (converted)
readout: half-life (h)
Write down the numeric answer in h and omit the unit.

### Prompt Recorded half-life for CCn1c(-c2cc(N3CCN(C)CC3)cnc2[C@H](C)OC)c2c3cc(ccc31)-c1csc(n1)C[C@H](NC(=O)[C@H]1C[C@@H]1C)C(=O)N1CCC[C@H](N1)C(=O)OCC(C)(C)C2 , please?
### Response 17.1

---

experimentSummary: Mouse blood and tissue PK (LC/MS-MS)
Type: in vivo
conditionDetails: mouse, whole blood, oral, 25 mg/kg, Model Development Dataset; 25mg/kg_study8; 1 h; read-out: Blood Concentration
Description: For single-dose PKPD study, mice were randomized and assigned into groups (n = 3/dose/time point). […] Blood and tissues, including the tumor, brain, colon, ear skin, and muscle, were harvested at indicated time points. […] The whole blood, tumor, brain, colon, and ear skin concentrations of RMC-6236 were determined using liquid chromatography–tandem mass spectrometry (LC/MS-MS) methods. […] Concentrations reported as below the quantification limit were treated as zero for PK analysis. […]
readout: concentration at 1 h
Note to self: number, then unit, no commentary.

### Prompt Given CCn1c(-c2cc(N3CCN(C)CC3)cnc2[C@H](C)OC)c2c3cc(ccc31)-c1csc(n1)C[C@H](NC(=O)[C@H]1C[C@@H]1C)C(=O)N1CCC[C@H](N1)C(=O)OCC(C)(C)C2 [RMC-6236] , state its recorded concentration at 1 h.
### Response 979 nM

---

experimentSummary: Mouse blood and tissue PK (LC/MS-MS)
Assay type: in vivo
conditionDetails: BALB/c nude, mouse, tumor, oral, 25 mg/kg, sheet colon; Capan-2, Capan-2 #3_PHA 2023; 25 mg/kg, 8h; read-out: RMC-6236 (nM) Tumor
readout: concentration at 8 h (nM)
Return type: number; implicit unit nM.

### Prompt Endpoint output: concentration at 8 h of CCn1c(-c2cc(N3CCN(C)CC3)cnc2[C@H](C)OC)c2c3cc(ccc31)-c1csc(n1)C[C@H](NC(=O)[C@H]1C[C@@H]1C)C(=O)N1CCC[C@H](N1)C(=O)OCC(C)(C)C2 . Value?
### Response 3260

---

experimentSummary: Mouse blood and tissue PK (LC/MS-MS)
Type: in vivo
conditionDetails: Balb/c nude, mouse, whole blood, po, 25 mg/kg, LU99-luc IC #2 (25 mg/kg), single dose
Procedure: For single-dose PKPD study, mice were randomized and assigned into groups (n = 3/dose/time point). […] Blood and tissues, including the tumor, brain, colon, ear skin, and muscle, were harvested at indicated time points. […] The whole blood, tumor, brain, colon, and ear skin concentrations of RMC-6236 were determined using liquid chromatography–tandem mass spectrometry (LC/MS-MS) methods. […] Concentrations reported as below the quantification limit were treated as zero for PK analysis. […]
readout: Cmax (ng/mL)
Write the answer as a number in ng/mL, unit excluded.

### Prompt Name the reported Cmax value associated with the compound CCn1c(-c2cc(N3CCN(C)CC3)cnc2[C@H](C)OC)c2c3cc(ccc31)-c1csc(n1)C[C@H](NC(=O)[C@H]1C[C@@H]1C)C(=O)N1CCC[C@H](N1)C(=O)OCC(C)(C)C2
### Response 2020

---

experimentSummary: Mouse blood and tissue PK (LC/MS-MS)
Format: in vivo
conditionDetails: mouse, tumor, oral, 3 mg/kg, KP-4, study KP-4 #6, 3 mg/kg, 4h; read-out: RMC-6236 (nM) Tumor
readout: concentration at 4 h (nM)
Enter your answer as a number in nM; do not include the unit.

### Prompt # concentration at 4 h lookup, item CCn1c(-c2cc(N3CCN(C)CC3)cnc2[C@H](C)OC)c2c3cc(ccc31)-c1csc(n1)C[C@H](NC(=O)[C@H]1C[C@@H]1C)C(=O)N1CCC[C@H](N1)C(=O)OCC(C)(C)C2
### Response 264

---

experimentSummary: Mouse blood and tissue PK (LC/MS-MS)
Format: in vivo
conditionDetails: mouse, whole blood, oral, 25 mg/kg, Model Validation Dataset; 25mg/kg_study6; 4 h; read-out: Blood Concentration
readout: concentration at 4 h (nM)
Express the result in nM but write the number alone.

### Prompt Entry CCn1c(-c2cc(N3CCN(C)CC3)cnc2[C@H](C)OC)c2c3cc(ccc31)-c1csc(n1)C[C@H](NC(=O)[C@H]1C[C@@H]1C)C(=O)N1CCC[C@H](N1)C(=O)OCC(C)(C)C2 : reported concentration at 4 h = ?
### Response 1140

---

experimentSummary: Mouse blood and tissue PK (LC/MS-MS)
Format: in vivo
conditionDetails: mouse, tumor, oral, 25 mg/kg, Model Validation Dataset; 25mg/kg_study6; 8 h; read-out: Tumor Concentration
readout: concentration at 8 h (nM)
Just the number in nM, nothing appended.

### Prompt // returns reported concentration at 8 h for input CCn1c(-c2cc(N3CCN(C)CC3)cnc2[C@H](C)OC)c2c3cc(ccc31)-c1csc(n1)C[C@H](NC(=O)[C@H]1C[C@@H]1C)C(=O)N1CCC[C@H](N1)C(=O)OCC(C)(C)C2
### Response 2570

---

experimentSummary: Mouse blood and tissue PK (LC/MS-MS)
Format: in vivo
conditionDetails: mouse, whole blood, oral, 25 mg/kg, Model Validation Dataset; 25mg/kg_study6; 1 h; read-out: Blood Concentration
Method: For single-dose PKPD study, mice were randomized and assigned into groups (n = 3/dose/time point). […] Blood and tissues, including the tumor, brain, colon, ear skin, and muscle, were harvested at indicated time points. […] The whole blood, tumor, brain, colon, and ear skin concentrations of RMC-6236 were determined using liquid chromatography–tandem mass spectrometry (LC/MS-MS) methods. […] Concentrations reported as below the quantification limit were treated as zero for PK analysis. […]
readout: concentration at 1 h (nM)
Hi! Could you send only the number? It should be in nM, unit omitted.

### Prompt Request the reported concentration at 1 h associated with CCn1c(-c2cc(N3CCN(C)CC3)cnc2[C@H](C)OC)c2c3cc(ccc31)-c1csc(n1)C[C@H](NC(=O)[C@H]1C[C@@H]1C)C(=O)N1CCC[C@H](N1)C(=O)OCC(C)(C)C2
### Response 885

---

experimentSummary: Mouse blood and tissue PK (LC/MS-MS)
Type: in vivo
conditionDetails: BALB/c nude, mouse, tumor, oral, 25 mg/kg, Capan-2, study Capan-2 #3_PHA 2023, 25 mg/kg, 4h; read-out: RMC-6236 (nM) Tumor
readout: concentration at 4 h (nM)
Record the value in nM, omitting the unit from your answer.

### Prompt What value of concentration at 4 h has been recorded for this entry: CCn1c(-c2cc(N3CCN(C)CC3)cnc2[C@H](C)OC)c2c3cc(ccc31)-c1csc(n1)C[C@H](NC(=O)[C@H]1C[C@@H]1C)C(=O)N1CCC[C@H](N1)C(=O)OCC(C)(C)C2
### Response 3050

---

experimentSummary: Mouse blood and tissue PK (LC/MS-MS)
Assay type: in vivo
conditionDetails: mouse, whole blood, oral, 10 mg/kg, Model Validation Dataset; 10mg/kg_study6; 0.5 h
readout: concentration at 0.5 h (µM)
Express it in µM; write the number only.

### Prompt Report concentration at 0.5 h for CCn1c(-c2cc(N3CCN(C)CC3)cnc2[C@H](C)OC)c2c3cc(ccc31)-c1csc(n1)C[C@H](NC(=O)[C@H]1C[C@@H]1C)C(=O)N1CCC[C@H](N1)C(=O)OCC(C)(C)C2 [RMC-6236] please.
### Response 0.435

---

experimentSummary: Mouse blood and tissue PK (LC/MS-MS)
Assay type: in vivo
conditionDetails: BALB/c nude, mouse, ear skin, oral, 25 mg/kg, sheet Ear Skin, model Capan-2, study Capan-2 #3_PHA 2023, 25 mg/kg, 2h; read-out: RMC-6236 (nM) Tumor
readout: concentration at 2 h (nM)
// units = nM; emit number, no label

### Prompt Looking for the measured concentration at 2 h of CCn1c(-c2cc(N3CCN(C)CC3)cnc2[C@H](C)OC)c2c3cc(ccc31)-c1csc(n1)C[C@H](NC(=O)[C@H]1C[C@@H]1C)C(=O)N1CCC[C@H](N1)C(=O)OCC(C)(C)C2 , can you help?
### Response 1640

---

experimentSummary: Mouse blood and tissue PK (LC/MS-MS)
Format: in vivo
conditionDetails: mouse, whole blood, oral, 40 mg/kg, Model Development Dataset; 40mg/kg_study8; 0.5 h
Procedure: For single-dose PKPD study, mice were randomized and assigned into groups (n = 3/dose/time point). […] Blood and tissues, including the tumor, brain, colon, ear skin, and muscle, were harvested at indicated time points. […] The whole blood, tumor, brain, colon, and ear skin concentrations of RMC-6236 were determined using liquid chromatography–tandem mass spectrometry (LC/MS-MS) methods. […] Concentrations reported as below the quantification limit were treated as zero for PK analysis. […]
readout: concentration at 0.5 h (nM)
Reply with just the number (in nM).

### Prompt Find the recorded concentration at 0.5 h belonging to CCn1c(-c2cc(N3CCN(C)CC3)cnc2[C@H](C)OC)c2c3cc(ccc31)-c1csc(n1)C[C@H](NC(=O)[C@H]1C[C@@H]1C)C(=O)N1CCC[C@H](N1)C(=O)OCC(C)(C)C2 and report it.
### Response 1320
